Overview of reported TetR repression strength across a group of sequences:
Tgt: TetR (class B, Tn10)
Assay info: TetR repression strength (sort-seq, GFP reporter) (relative to tetO2 = 1); higher = stronger repression
Test context: E. coli
Whole data set: some 18,000 sequences, median “TetR repression strength (sort-seq, GFP reporter)” near 0.23, cut for the highest 2% near 0.68. Only a selection was taken, and the highest values are over-represented in it overall.
Readout name: TetR repression strength

> print(dat)
       sequence.content              readout.name  quantitative.readout
 1  TCCCTCCGAGTCATCGAGA  TetR repression strength                 0.264
 2  TCCCCAGGAGTGGCTGAGA  TetR repression strength                0.0764
 3  TCCCTGTTAGTGTGTGAGA  TetR repression strength                 0.138
 4  TCCCGAGAAGTGCCTGAGA  TetR repression strength                 0.178
 5  TCCCATTTAGTGATCGAGA  TetR repression strength                     0
 6  TCCCTGGAAGTGTTCGAGA  TetR repression strength                 0.277
 7  TCCCTGGCAGTTTGCGAGA  TetR repression strength                  0.65
 8  TCCCGCTCAGTACGCGAGA  TetR repression strength                 0.104
 9  TCCCTGACAGTTGGCGAGA  TetR repression strength                 0.301
10  TCCCTGTCAGTCGGGGAGA  TetR repression strength                 0.154
11  TCCCATTCAGTCTTTGAGA  TetR repression strength                 0.228
12  TCCCCTGAAGTGGCAGAGA  TetR repression strength                 0.204
13  TCCCTGTCAGTTGGAGAGA  TetR repression strength                  0.36
14  TCCCGAGTAGTAACGGAGA  TetR repression strength                 0.461
15  TCCCGTTCAGTAGGCGAGA  TetR repression strength                 0.261
16  TCCCAGATAGTCGCGGAGA  TetR repression strength                 0.108

* * *

Tgt: TetR (class B, Tn10) (UniProt P04483)
Sequence (P04483 whole entry): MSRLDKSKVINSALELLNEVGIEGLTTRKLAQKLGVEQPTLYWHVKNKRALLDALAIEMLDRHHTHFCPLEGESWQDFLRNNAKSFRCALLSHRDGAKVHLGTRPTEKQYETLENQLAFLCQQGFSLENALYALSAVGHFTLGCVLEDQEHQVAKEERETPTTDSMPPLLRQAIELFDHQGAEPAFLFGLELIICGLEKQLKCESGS
Assay info: TetR repression strength (sort-seq, GFP reporter) (relative to tetO2 = 1); higher = stronger repression
Test context: E. coli
Over roughly 18,000 sequences, “TetR repression strength (sort-seq, GFP reporter)” has its median near 0.23; the highest 2% begin near 0.68. Many of the other results were omitted from the sample, so the highest values are more common in it than they were.
Binary classification by TetR repression strength, with 0.4 as an inclusive lower bound for Yes; all other cases are No.

> print(dat)
       sequence.content  category.label
 1  TCCCAATCAGTGTGTGAGA              No
 2  TCCCGTAGAGTAATGGAGA              No
 3  TCCCTATGAGTGTCAGAGA              No
 4  TCCCTGACAGTCGGTGAGA              No
 5  TCCCAGCAAGTAGGGGAGA              No
 6  TCCCTACTAGTCCTCGAGA             Yes
 7  TCCCTAATAGTCCTCGAGA              No
 8  TCCCTATCAGTTGTTGAGA             Yes
 9  TCCCTTTCAGTGATTGAGA             Yes
10  TCCCAGCAAGTTATGGAGA             Yes
11  TCCCTTCTAGTCCTCGAGA             Yes
12  TCCCACCAAGTGTTCGAGA              No
13  TCCCTACGAGTACTCGAGA              No
14  TCCCTATCAGTGTCAGAGA             Yes
15  TCCCGTCGAGTGGGAGAGA             Yes

* * *

Tgt: TetR (class B, Tn10) (UniProt P04483)
Assay info: TetR repression strength (sort-seq, GFP reporter) (relative to tetO2 = 1); higher = stronger repression
Test context: E. coli
The full ranking holds about 18,000 sequences; the median of “TetR repression strength (sort-seq, GFP reporter)” is about 0.23, and the highest 2% start at about 0.68. The sample as a whole holds a higher share of the highest values than the screen did.
Give satisfied when the value for TetR repression strength is at least 0.3. Give not satisfied when it is less.

> print(dat)
       sequence.content  category.label
 1  TCCCCAGAAGTGATTGAGA       satisfied
 2  TCCCATCCAGTGGGGGAGA   not satisfied
 3  TCCCCATAAGTGATTGAGA       satisfied
 4  TCCCAGGCAGTGGGGGAGA   not satisfied
 5  TCCCATTCAGTGATCGAGA       satisfied
 6  TCCCACATAGTTTAAGAGA   not satisfied
 7  TCCCTCGCAGTGAGCGAGA   not satisfied
 8  TCCCGTTTAGTGTTTGAGA   not satisfied
 9  TCCCGAGCAGTGACAGAGA       satisfied
10  TCCCCCATAGTCAGGGAGA       satisfied
11  TCCCATTAAGTGATCGAGA       satisfied
12  TCCCGCGAAGTCAGAGAGA       satisfied
13  TCCCTGGCAGTGATGGAGA   not satisfied
14  TCCCCGTAAGTGAGAGAGA   not satisfied
15  TCCCTAGCAGTGATCGAGA       satisfied

* * *

Tgt: TetR (class B, Tn10) (UniProt P04483)
Assay info: TetR repression strength (sort-seq, GFP reporter) (relative to tetO2 = 1); higher = stronger repression
Test context: E. coli
In all, about 18,000 sequences were measured (“TetR repression strength (sort-seq, GFP reporter)”: median about 0.23, highest 2% from about 0.68 on). The full list was thinned out, with the highest values kept by preference.
If the reported TetR repression strength equals or exceeds 0.2, assign Met. If not, assign Not met.

> print(dat)
       sequence.content                                    tgt  category.label
 1  TCCCCAGTAGTGTAAGAGA  TetR (class B, Tn10) (UniProt P04483)         Not met
 2  TCCCGTTGAGTGTTGGAGA  TetR (class B, Tn10) (UniProt P04483)             Met
 3  TCCCACCTAGTCTGCGAGA  TetR (class B, Tn10) (UniProt P04483)             Met
 4  TCCCACGGAGTCGGCGAGA  TetR (class B, Tn10) (UniProt P04483)         Not met
 5  TCCCCAGAAGTGGTAGAGA  TetR (class B, Tn10) (UniProt P04483)             Met
 6  TCCCTGACAGTAGTAGAGA  TetR (class B, Tn10) (UniProt P04483)             Met
 7  TCCCCTCTAGTGTAAGAGA  TetR (class B, Tn10) (UniProt P04483)         Not met
 8  TCCCCAGCAGTGAGGGAGA  TetR (class B, Tn10) (UniProt P04483)         Not met
 9  TCCCGTGGAGTTTCTGAGA  TetR (class B, Tn10) (UniProt P04483)         Not met
10  TCCCGCGCAGTCAGTGAGA  TetR (class B, Tn10) (UniProt P04483)             Met
11  TCCCGTCGAGTGTTCGAGA  TetR (class B, Tn10) (UniProt P04483)             Met
12  TCCCTAGTAGTAAGCGAGA  TetR (class B, Tn10) (UniProt P04483)         Not met
13  TCCCGTTTAGTAGTTGAGA  TetR (class B, Tn10) (UniProt P04483)         Not met
14  TCCCAAGTAGTGGGGGAGA  TetR (class B, Tn10) (UniProt P04483)         Not met
15  TCCCTAGAAGTACTAGAGA  TetR (class B, Tn10) (UniProt P04483)         Not met
16  TCCCACGCAGTAGGGGAGA  TetR (class B, Tn10) (UniProt P04483)             Met
17  TCCCAGGTAGTGGCGGAGA  TetR (class B, Tn10) (UniProt P04483)         Not met
18  TCCCTGTCAGTCGGTGAGA  TetR (class B, Tn10) (UniProt P04483)             Met
19  TCCCACTTAGTAAGTGAGA  TetR (class B, Tn10) (UniProt P04483)         Not met
20  TCCCCGGGAGTTATGGAGA  TetR (class B, Tn10) (UniProt P04483)             Met
21  TCCCCACAAGTGAGGGAGA  TetR (class B, Tn10) (UniProt P04483)             Met
22  TCCCGAGGAGTGTTCGAGA  TetR (class B, Tn10) (UniProt P04483)             Met
23  TCCCCACGAGTGAGGGAGA  TetR (class B, Tn10) (UniProt P04483)             Met
24  TCCCACCGAGTACGGGAGA  TetR (class B, Tn10) (UniProt P04483)         Not met
25  TCCCGTGGAGTGTTCGAGA  TetR (class B, Tn10) (UniProt P04483)             Met
26  TCCCGATTAGTCTTTGAGA  TetR (class B, Tn10) (UniProt P04483)         Not met
27  TCCCTATGAGTGTGGGAGA  TetR (class B, Tn10) (UniProt P04483)             Met
28  TCCCGGGGAGTTAGGGAGA  TetR (class B, Tn10) (UniProt P04483)             Met
29  TCCCTCATAGTATTGGAGA  TetR (class B, Tn10) (UniProt P04483)             Met
30  TCCCTAAGAGTACTGGAGA  TetR (class B, Tn10) (UniProt P04483)             Met
31  TCCCGGAAAGTAGCAGAGA  TetR (class B, Tn10) (UniProt P04483)         Not met
32  TCCCCGCGAGTGACAGAGA  TetR (class B, Tn10) (UniProt P04483)             Met
33  TCCCGGTCAGTCTTTGAGA  TetR (class B, Tn10) (UniProt P04483)         Not met
34  TCCCCGTGAGTTGGAGAGA  TetR (class B, Tn10) (UniProt P04483)             Met

Taken from a collection of fitness landscapes (doi:10.1038/s41467-024-54723-y).
